# literature pull: Bcl-2-like protein 1 (Homo sapiens, UniProt Q07817) Ki
# Sequence (Q07817 whole entry): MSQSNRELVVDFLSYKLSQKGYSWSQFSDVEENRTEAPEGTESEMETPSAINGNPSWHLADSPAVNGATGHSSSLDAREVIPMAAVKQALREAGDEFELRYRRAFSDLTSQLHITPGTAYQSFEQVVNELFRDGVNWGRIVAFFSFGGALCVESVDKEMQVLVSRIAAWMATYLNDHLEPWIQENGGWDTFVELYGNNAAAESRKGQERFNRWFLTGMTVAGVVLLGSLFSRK
Give the quantity in µM, number only.

Provide value of Ki for this record tested with Bcl-2-like protein 1 (Homo sapiens, UniProt Q07817): O=C(O)[C@@H]1C=C[C@@H]2C[C@H]3[C@H](CCCCCc4ccc(O)cc4)[C@H]4C=C[C@@H]1[C@@H]2[C@H]43 (relative stereo)
19.2

Provide value of Ki for this record tested with Bcl-2-like protein 1 (Homo sapiens, UniProt Q07817): CC1(C)CCN(c2ccc(C(=O)NS(=O)(=O)c3ccc(NC(C)(C)CSc4ccccc4)c([N+](=O)[O-])c3)cc2)CC1
0.0008

Provide value of Ki for this record tested with Bcl-2-like protein 1 (Homo sapiens, UniProt Q07817): Cc1cc(OCCCc2c(C(=O)O)sc3cc(Cl)ccc23)cc(C)c1Cl
4.1

Provide value of Ki for this record tested with Bcl-2-like protein 1 (Homo sapiens, UniProt Q07817): CN(C)CC[C@H](CSc1ccccc1)Nc1ccc(S(=O)(=O)Nc2ccc(N3CCN(Cc4ccccc4-c4ccc(Cl)cc4)CC3)cc2)cc1[N+](=O)[O-]
0.0247

Provide value of Ki for this record tested with Bcl-2-like protein 1 (Homo sapiens, UniProt Q07817): O=C(O)c1csc(N2CCc3cccc(C(=O)Nc4nc5ccccc5s4)c3C2)n1
0.065

Provide value of Ki for this record tested with Bcl-2-like protein 1 (Homo sapiens, UniProt Q07817): N#CC1=C(NCCC(=O)NCc2ccccc2)c2ccc(Sc3ccc(Br)cc3)c3cccc(c23)C1=O
1.11

Provide value of Ki for this record tested with Bcl-2-like protein 1 (Homo sapiens, UniProt Q07817): O=C(Nc1nc2ccccc2s1)c1cccc2c1CN(c1ccc(-c3cn(Cc4ccccc4)nn3)c(C(=O)O)n1)CC2
0.00596

Provide value of Ki for this record tested with Bcl-2-like protein 1 (Homo sapiens, UniProt Q07817): CCc1sc2nc(S(C)(=O)=O)nc(N[C@H](C)C(=O)O)c2c1-c1cccc(Oc2ccc(F)cc2)c1
26

Provide value of Ki for this record tested with Bcl-2-like protein 1 (Homo sapiens, UniProt Q07817): COc1cccc(/C=C/C(=O)Nc2ccc(C(=O)NS(=O)(=O)c3ccc(NCCSc4ccccc4)c([N+](=O)[O-])c3)cc2)c1
0.11

Provide value of Ki for this record tested with Bcl-2-like protein 1 (Homo sapiens, UniProt Q07817): O=C(NCCN1CCCCC1)[C@@H]1[C@@H](CO)[C@@H]2Cn3c(cccc3=O)[C@H]1N2c1nc(-c2ccc(Cl)cc2)c(-c2ccccc2)s1
6

Provide value of Ki for this record tested with Bcl-2-like protein 1 (Homo sapiens, UniProt Q07817): Cc1cc(Oc2ccc(Cn3nc4ccc(Cl)cc4c3C(=O)NS(=O)(=O)c3ccc([N+](=O)[O-])c(N4CCOCC4)c3)cc2)cc(C)c1Cl
6.66

Provide value of Ki for this record tested with Bcl-2-like protein 1 (Homo sapiens, UniProt Q07817): COC1=CC(c2cc3ccccc3[nH]2)=N/C1=C/c1[nH]cc(C)c1C
4.69

Provide value of Ki for this record tested with Bcl-2-like protein 1 (Homo sapiens, UniProt Q07817): O=C(NCCCN1CCCC1)[C@H]1[C@H](CO)[C@H]2Cn3c(cccc3=O)[C@@H]1N2c1nc(-c2ccc(Cl)cc2)c(-c2ccccc2)s1
7.8
